FYI, the data here is from PubChem BioAssay (NCI).

What TGI was measured for each of the following?
Tested on: ACHN renal
Test: NCI tumour cell line growth inhibition, 48 h

Note to self: TGI recorded for Cc1cc2c(c(C(=O)NCCC(=O)N[C@@H](C)C(=O)OCc3ccccc3)c1)Oc1c(cc(C)cc1C(=O)NCCC(=O)N[C@@H](C)C(=O)OCc1ccccc1)S2 was > 100 µM

Note to self: TGI recorded for CN(C)C(=S)/N=c1\ss/c(=N\C(=S)N(C)C)n1-c1ccc(Cl)cc1 was > 100 µM

Note to self: TGI recorded for COc1cc(C=O)c(-c2cc3c(cc2C2(C)OCCS2)OCO3)c(OC)c1OC (configuration not stated) was > 99.1 µM

Note to self: TGI recorded for CCC(=O)C(C)C(=O)C(=O)C(=O)OC (configuration not stated) was > 100 µM

Note to self: TGI recorded for O=C1c2cc(-c3ccccc3)ccc2-c2c1c1ccc([N+](=O)[O-])cc1c(=O)n2CCCBr was > 50 µM

Note to self: TGI recorded for COc1ccc(-c2nnc(-c3ccncc3)o2)cc1 was > 100 µM

Note to self: TGI recorded for O=C(NN1C(=O)CSC1c1ccco1)c1ccncc1 (configuration not stated) was > 100 µM

Note to self: TGI recorded for CCOC(=O)c1cc2c(cn1)[nH]c1cccc(N)c12 was > 100 µM

Note to self: TGI recorded for COc1ccc(-c2nnc(CCCCCCCCc3nnc(-c4ccc(OC)cc4)n3N)n2N)cc1 was > 100 µM

Note to self: TGI recorded for Cc1cc(Nc2ccc(F)cc2)nc(N2CCN(c3ccnc4cc(Cl)ccc34)CC2)n1 was > 100 µM

Note to self: TGI recorded for CO[C@H]1C[C@H](n2cc(C)c(=O)[nH]c2=O)O[C@@H]1CO was > 100 µM

Note to self: TGI recorded for CNc1ncnc2c1nnn2C was > 100 µM

---

System: HOP-62 NSCLC
Assay: NCI tumour cell line growth inhibition, 48 h
What TGI was measured for each of the following?

Item CCCCOC(=O)c1ccc(NC(=O)CCl)cc1 ; assay system HOP-62 NSCLC; TGI reported as 3.96 µM

Item C[C@]1(C(=O)O)N[C@H](C(=O)O)CS1 ; assay system HOP-62 NSCLC; TGI reported as > 1000 µM

Item CC(=O)OCc1ccc(O)c(C=O)c1 ; assay system HOP-62 NSCLC; TGI reported as > 100 µM

Item COc1cc2cc3c4c(cc(OC)c(OC)c4c2cc1OC)CCN3C(=O)N(C)C ; assay system HOP-62 NSCLC; TGI reported as > 100 µM

Item COc1ccc2oc(=Nc3ccc(F)cc3)c(C(N)=O)cc2c1 ; assay system HOP-62 NSCLC; TGI reported as > 100 µM

---

Test system: HCT-116 colon
Experiment: NCI tumour cell line growth inhibition, 48 h
What TGI was measured for each of the following?

Note to self: TGI recorded for N#C/C(=C\Nc1ccccn1)C(=O)c1ccco1 was > 100 µM

Note to self: TGI recorded for N#Cc1ccc(Nc2cnc3ccc(N)cc3n2)cc1 was > 100 µM

Note to self: TGI recorded for COc1ccc(-c2nnc(CCCCCCCCc3nnc(-c4ccc(OC)cc4)n3N)n2N)cc1 was > 100 µM

Note to self: TGI recorded for C[C@H](N)C(=O)N[C@@H]1[C@H]2C(=C(O)C[C@@H](O)[C@@H]2O)C(=O)O[C@@H]1C was > 100 µM

Note to self: TGI recorded for COc1ccc(-c2nnc(-c3c(C)n(C)n(-c4ccccc4)c3=O)o2)cc1 was > 100 µM

Note to self: TGI recorded for CCOC(=O)C1=CC(C)(C(=O)OCC)Nc2c(nc(SC)n(C)c2=O)N1 (stereo unspecified) was > 10 µM
